- STUDY_TARGET: Multidrug efflux pump subunit AcrB (Escherichia coli (strain K12)) (UniProt P31224)
- PROTOCOL: Inhibition of AcrB in multidrug-resistant Escherichia coli BW25113 assessed as potentiation of tetraphenylphosphonium-induced antibacterial activity by measuring tetraphenylphosphonium MIC at 16 ug/ml by checkerboard titration method (reference value: 1024 ug/ml)
- CONDITION_SET: dose 16.0 µg/ml
REPORTED_ENDPOINT: MIC (µg/mL)
Answer in µg/mL, number only, no unit symbol.

Input: Which MIC value is on record for "CC1(C)CCc2c(-c3nnco3)cc3c(OCc4ccc(C#N)cc4)cccc3c2O1" ?
Output: 1020

Input: Please do the same for "CNC(=O)c1ccc(COc2cccc3c4c(c(Cn5cnnn5)cc23)CCC(C)(C)O4)cc1" as well.
Output: 1020

Input: Lookup "CC1(C)CCc2c(-c3nnco3)cc3c(OCc4ccc(F)cc4)cccc3c2O1"
Output: 512

Input: Also need "C[C@@H](Cc1ccc(O)c(O)c1)[C@@H](C)Cc1ccc(O)c(O)c1" , thanks.
Output: 1020

Input: Next compound: "CC1(C)CC(=O)c2ccc(OCCNC3CCCC3)cc2O1"
Output: 512

Input: Next entry: "COc1cccc(COc2cccc3c4c(c(-c5nnco5)cc23)CCC(C)(C)O4)c1"
Output: 1020

Input: For "C=CC(=O)Nc1ccc(COc2cccc3c4c(c(C(=O)N5CCOCC5)cc23)CCC(C)(C)O4)cc1" then?
Output: 512

Input: Further, for "CC1(C)CC(=O)c2ccc(OCC(=O)Nc3ccc(C#N)c(C(F)(F)F)c3)cc2O1" ?
Output: 1020

Input: Same lookup for "CC(C)NCCOc1ccc2c(c1)OC(C)(C)CC2=O" , please.
Output: 1020

Input: Moving on to "CC1(C)CCc2c(-c3nnco3)cc3c(OCc4ccc([N+](=O)[O-])cc4)cccc3c2O1"
Output: 1020

Input: Try "COc1cccc(COc2cccc3c4c(c(C(=O)N5CCOCC5)cc23)CCC(C)(C)O4)c1" next.
Output: 512

Input: What do we get for "CC1(C)CCc2c(C(=O)N3CCOCC3)cc3c(OCc4ccccc4)cccc3c2O1" ?
Output: 512

----------
- STUDY_TARGET: Multidrug efflux pump subunit AcrB (Escherichia coli (strain K12)) (UniProt P31224)
- PROTOCOL: Inhibition of AcrB in multidrug-resistant Escherichia coli BW25113 assessed as potentiation of tetraphenylphosphonium-induced antibacterial activity by measuring tetraphenylphosphonium MIC at 8 ug/ml by checkerboard titration method (reference value: 1024 ug/ml)
- CONDITION_SET: dose 8.0 µg/ml
Record form. Attribute: MIC. Fill in for each entry.
Number only, in µg/mL; omit the unit.

Input: Endpoint output: MIC of CC1CN(C(=O)c2cc3c(OCc4c(Cl)cccc4Cl)cccc3c3c2CCC(C)(C)O3)CC(C)O1 (centres undefined) . Value?
Output: 1020

Input: Proceed to "CC1(C)CCc2c(Cn3cnnn3)cc3c(OCc4ccc([N+](=O)[O-])cc4)cccc3c2O1"
Output: 1020

Input: Now try "CNC(=O)c1ccc(COc2cccc3c4c(c(Cn5cnnn5)cc23)CCC(C)(C)O4)cc1" .
Output: 1020

Input: Continue with "CC1(C)CCc2c(-c3nnco3)cc3c(OCc4ccccc4)cccc3c2O1"
Output: 512

----------
- STUDY_TARGET: Multidrug efflux pump subunit AcrB (Escherichia coli (strain K12))
- Sequence (whole entry): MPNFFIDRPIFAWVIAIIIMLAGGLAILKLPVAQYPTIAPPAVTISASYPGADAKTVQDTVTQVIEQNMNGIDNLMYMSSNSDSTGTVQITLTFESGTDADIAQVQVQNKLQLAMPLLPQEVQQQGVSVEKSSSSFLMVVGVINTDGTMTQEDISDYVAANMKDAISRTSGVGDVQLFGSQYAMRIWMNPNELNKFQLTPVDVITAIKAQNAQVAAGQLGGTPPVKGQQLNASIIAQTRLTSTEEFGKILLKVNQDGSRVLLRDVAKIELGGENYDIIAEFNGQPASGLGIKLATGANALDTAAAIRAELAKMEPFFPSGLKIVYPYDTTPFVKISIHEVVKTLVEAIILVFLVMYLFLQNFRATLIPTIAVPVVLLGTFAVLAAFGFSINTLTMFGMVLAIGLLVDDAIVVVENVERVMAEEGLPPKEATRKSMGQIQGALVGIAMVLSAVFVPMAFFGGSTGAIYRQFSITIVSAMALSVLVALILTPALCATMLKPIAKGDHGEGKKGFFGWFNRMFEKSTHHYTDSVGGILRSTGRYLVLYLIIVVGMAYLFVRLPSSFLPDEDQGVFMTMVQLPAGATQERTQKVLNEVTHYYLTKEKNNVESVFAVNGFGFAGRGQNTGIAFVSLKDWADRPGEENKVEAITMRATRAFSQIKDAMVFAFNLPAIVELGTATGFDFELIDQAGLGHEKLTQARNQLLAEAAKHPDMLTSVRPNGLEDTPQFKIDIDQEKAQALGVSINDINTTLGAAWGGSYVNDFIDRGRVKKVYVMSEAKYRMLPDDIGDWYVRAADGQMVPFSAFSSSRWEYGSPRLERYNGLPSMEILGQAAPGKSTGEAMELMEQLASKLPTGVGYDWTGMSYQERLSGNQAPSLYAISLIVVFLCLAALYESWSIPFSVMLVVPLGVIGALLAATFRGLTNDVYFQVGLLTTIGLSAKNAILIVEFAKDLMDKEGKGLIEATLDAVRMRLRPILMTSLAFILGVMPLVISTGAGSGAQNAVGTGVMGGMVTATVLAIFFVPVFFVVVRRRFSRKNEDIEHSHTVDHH
- PROTOCOL: Inhibition of AcrB in multidrug-resistant Escherichia coli BW25113 assessed as potentiation of levofloxacin-induced antibacterial activity by measuring levofloxacin MIC at 128 ug/ml by checkerboard titration method (reference value: 0.06 ug/ml)
- CONDITION_SET: dose 128.0 µg/ml
REPORTED_ENDPOINT: MIC (µg/mL)
State just the number; it will be interpreted in µg/mL.

Input: Lab request: please report MIC under test system Multidrug efflux pump subunit AcrB (Escherichia coli (strain K12)) for "Cc1ccccc1COc1cccc2c3c(c(-c4nnco4)cc12)CCC(C)(C)O3"
Output: 0.06

Input: Can you handle "CC1(C)CCc2c(-c3nnco3)cc3c(OCc4ccc([N+](=O)[O-])cc4)cccc3c2O1" next?
Output: 0.06

Input: Also, "COc1cccc(COc2cccc3c4c(c(C(=O)O)cc23)CCC(C)(C)O4)c1" please.
Output: 0.06

Input: Ok, now "CC1(C)CCc2c(Cn3cnnn3)cc3c(OCc4ccccc4)cccc3c2O1"
Output: 0.03

Input: Lookup CC1CN(C(=O)c2cc3c(OCc4c(Cl)cccc4Cl)cccc3c3c2CCC(C)(C)O3)CC(C)O1 (stereo not drawn)
Output: 0.03

Input: // next record "CC(C)NCCOc1ccc2c(c1)OC(C)(C)CC2=O"
Output: 0.03

Input: Again, but for "CC1(C)CC(=O)c2ccc(OCCNC3CCCC3)cc2O1"
Output: 0.03

Input: Do the same for "C=CC(=O)Nc1ccc(COc2cccc3c4c(c(C(=O)N5CCOCC5)cc23)CCC(C)(C)O4)cc1" please
Output: 0.01

Input: For "CNC(=O)c1ccc(COc2cccc3c4c(c(Cn5cnnn5)cc23)CCC(C)(C)O4)cc1" then?
Output: 0.06

Input: Field entry: "CC1(C)CCc2c(Cn3cnnn3)cc3c(OCc4ccc([N+](=O)[O-])cc4)cccc3c2O1"
Output: 0.06

Input: "CC1(C)CCc2c(C(=O)N3CCOCC3)cc3c(OCc4ccc(C(F)(F)F)cc4)cccc3c2O1" ?
Output: 0.06

Input: What about this compound? "C=CC(=O)Nc1ccc(COc2cccc3c4c(c(Cn5cnnn5)cc23)CCC(C)(C)O4)cc1"
Output: 0.06

Input: Do the same for "Cc1ccc(COc2cccc3c4c(c(-c5nnco5)cc23)CCC(C)(C)O4)cc1" please
Output: 0.01

----------
- STUDY_TARGET: Multidrug efflux pump subunit AcrB (Escherichia coli (strain K12)) (UniProt P31224)
- PROTOCOL: Inhibition of AcrB in multidrug-resistant Escherichia coli BW25113 assessed as potentiation of tetraphenylphosphonium-induced antibacterial activity by measuring tetraphenylphosphonium MIC at 64 ug/ml by checkerboard titration method (reference value: 1024 ug/ml)
- CONDITION_SET: dose 64.0 µg/ml
REPORTED_ENDPOINT: MIC

Input: Which MIC value is on record for "Cc1ccc(COc2cccc3c4c(c(-c5nnco5)cc23)CCC(C)(C)O4)cc1" ?
Output: 512 mg/L

Input: // query: "CC1(C)CCc2c(C(=O)N3CCOCC3)cc3c(OCc4ccc(C(F)(F)F)cc4)cccc3c2O1"
Output: 512 mg/L

Input: Moving on to "CC1(C)CCc2c(Cn3cnnn3)cc3c(OCc4ccc(OC(F)(F)F)cc4)cccc3c2O1"
Output: 1020 mg/L

Input: Entry "COc1cccc(COc2cccc3c4c(c(-c5nnco5)cc23)CCC(C)(C)O4)c1" please
Output: 512 mg/L

Input: And what about the compound "C=CC(=O)Nc1ccc(COc2cccc3c4c(c(C(=O)N5CCOCC5)cc23)CCC(C)(C)O4)cc1" ?
Output: 128 mg/L

Input: For "COc1cccc(COc2cccc3c4c(c(C(=O)O)cc23)CCC(C)(C)O4)c1" then?
Output: 512 mg/L

Input: Now consider CC1CN(C(=O)c2cc3c(OCc4ccc(Br)cc4)cccc3c3c2CCC(C)(C)O3)CC(C)O1 (centres undefined) and answer again.
Output: 1020 mg/L

Input: Follow-up entry: "C=CC(=O)Nc1ccc(COc2cccc3c4c(c(Cn5cnnn5)cc23)CCC(C)(C)O4)cc1"
Output: 1020 mg/L

Input: Let us now turn to "CC1(C)CCc2c(-c3nnco3)cc3c(OCc4ccc(C#N)cc4)cccc3c2O1"
Output: 512 mg/L

Input: Now this one: "CC1(C)CCc2c(C(=O)N3CCOCC3)cc3c(OCc4ccccc4)cccc3c2O1"
Output: 512 mg/L

Input: Moving on to "C[C@@H](Cc1ccc(O)c(O)c1)[C@@H](C)Cc1ccc(O)c(O)c1"
Output: 1020 mg/L

Input: // query: CC1CN(C(=O)c2cc3c(OCc4c(Cl)cccc4Cl)cccc3c3c2CCC(C)(C)O3)CC(C)O1 (centres undefined)
Output: 1020 mg/L

Input: Next entry: "CC1(C)CCc2c(Cn3cnnn3)cc3c(OCc4ccc([N+](=O)[O-])cc4)cccc3c2O1"
Output: 1020 mg/L

Input: Then what about the compound "CC1(C)CCc2c(Cn3cnnn3)cc3c(OCc4ccccc4)cccc3c2O1" ?
Output: 1020 mg/L

The reported measurements were obtained from ChEMBL document CHEMBL4732114.
